Origin of values: paper PMC12348844

Test system: intracellular amastigotes of T. cruzi
ASSAY REMARKS: Drug combination with Bz, fixed-ratio isobologram, intracellular amastigotes
Assay type: cell-based
MEASUREMENT CONDITIONS: Trypanosoma cruzi; proportion 1k:Bz 0:5, 72 h; read-out: IC50 (Mean ± DP) in combination assay
ENDPOINT LABEL: IC50 (nM)
Answer with a number only, understood to be in nM.

Entry O=C(Cn1ccnc1[N+](=O)[O-])NCc1ccccc1 [Bz, Benznidazole, reference compound] ; IC50 = 2300

====

ASSAY REMARKS: Cytotoxicity in 3D cardiac spheroids (CellTiter-Glo)
Assay type: cell-based
MEASUREMENT CONDITIONS: Swiss Webster, mouse, 3D cardiac spheroids from fetal heart muscle cells, 15.6 to 500 µM
ENDPOINT LABEL: CC50 at 72 h (µM)
Answer with a number only, understood to be in µM.

Entry FC(F)(F)c1ccc(-n2cc(C3=NCCN3)cn2)cc1 ; CC50 at 72 h = 173

====

Tested on: T. cruzi Dm28c-Luc intracellular amastigotes
ASSAY REMARKS: Anti-T. cruzi in vitro assay, intracellular amastigotes in Vero cells (luminescence)
Type: cell-based, Trypanosoma cruzi
MEASUREMENT CONDITIONS: 72 h, Dm28c-Luc in Vero cells, mean ± SD; read-out: Intracellular Amastigotes IC50
ENDPOINT LABEL: IC50 (µM)
Answer with a number only, understood to be in µM.

Entry Cc1cccc(-n2cc(C3=NCCN3)cn2)c1 ; IC50 = 26.2

====

Tested on: T. cruzi Dm28c-Luc intracellular amastigotes
ASSAY REMARKS: Anti-T. cruzi in vitro assay, intracellular amastigotes in Vero cells (luminescence)
Type: cell-based, Trypanosoma cruzi
MEASUREMENT CONDITIONS: Trypanosoma cruzi; 72 h, Dm28c-Luc in Vero cells, mean ± SD; read-out: Intracellular Amastigotes IC50
ENDPOINT LABEL: IC50 (nM)
Answer with a number only, understood to be in nM.

Entry O=C(Cn1ccnc1[N+](=O)[O-])NCc1ccccc1 [Bz, Benznidazole, reference compound] ; IC50 = 2200

====

Test system: T. cruzi Dm28c-Luc intracellular amastigotes
ASSAY REMARKS: Anti-T. cruzi in vitro assay, intracellular amastigotes in Vero cells (luminescence)
Assay type: cell-based, Trypanosoma cruzi
MEASUREMENT CONDITIONS: Trypanosoma cruzi; 72 h, Dm28c-Luc in Vero cells, mean ± SD
Listed here: items and their measured IC90.
Answer with a number only, understood to be in µM.

Example compounds with recorded IC90:
| COMPOUND | TARGET OF ASSAY | IC90 [µM] |
| --- | --- | --- |
| Cc1ccc(-n2ncc(C3=NCCN3)c2N)cc1Cl [1e] | T. cruzi Dm28c-Luc intracellular amastigotes | 96.6 |
| FC(F)(F)c1ccc(-n2cc(C3=NCCN3)cn2)cc1 [1k] | T. cruzi Dm28c-Luc intracellular amastigotes | 28.1 |
| Cc1cccc(-n2cc(C3=NCCN3)cn2)c1 [1h] | T. cruzi Dm28c-Luc intracellular amastigotes | 89.7 |
| FC(F)(F)c1cc(-n2cc(C3=NCCN3)cn2)cc(C(F)(F)F)c1 [1m] | T. cruzi Dm28c-Luc intracellular amastigotes | 80.7 |

Next compound, please.
Entry O=C(Cn1ccnc1[N+](=O)[O-])NCc1ccccc1 [Bz, Benznidazole, reference compound] ; IC90 = 10.4
